system: Endoplasmic reticulum aminopeptidase 1 (Homo sapiens) (UniProt Q9NZ08)
Sequence (Q9NZ08 whole entry, looked up): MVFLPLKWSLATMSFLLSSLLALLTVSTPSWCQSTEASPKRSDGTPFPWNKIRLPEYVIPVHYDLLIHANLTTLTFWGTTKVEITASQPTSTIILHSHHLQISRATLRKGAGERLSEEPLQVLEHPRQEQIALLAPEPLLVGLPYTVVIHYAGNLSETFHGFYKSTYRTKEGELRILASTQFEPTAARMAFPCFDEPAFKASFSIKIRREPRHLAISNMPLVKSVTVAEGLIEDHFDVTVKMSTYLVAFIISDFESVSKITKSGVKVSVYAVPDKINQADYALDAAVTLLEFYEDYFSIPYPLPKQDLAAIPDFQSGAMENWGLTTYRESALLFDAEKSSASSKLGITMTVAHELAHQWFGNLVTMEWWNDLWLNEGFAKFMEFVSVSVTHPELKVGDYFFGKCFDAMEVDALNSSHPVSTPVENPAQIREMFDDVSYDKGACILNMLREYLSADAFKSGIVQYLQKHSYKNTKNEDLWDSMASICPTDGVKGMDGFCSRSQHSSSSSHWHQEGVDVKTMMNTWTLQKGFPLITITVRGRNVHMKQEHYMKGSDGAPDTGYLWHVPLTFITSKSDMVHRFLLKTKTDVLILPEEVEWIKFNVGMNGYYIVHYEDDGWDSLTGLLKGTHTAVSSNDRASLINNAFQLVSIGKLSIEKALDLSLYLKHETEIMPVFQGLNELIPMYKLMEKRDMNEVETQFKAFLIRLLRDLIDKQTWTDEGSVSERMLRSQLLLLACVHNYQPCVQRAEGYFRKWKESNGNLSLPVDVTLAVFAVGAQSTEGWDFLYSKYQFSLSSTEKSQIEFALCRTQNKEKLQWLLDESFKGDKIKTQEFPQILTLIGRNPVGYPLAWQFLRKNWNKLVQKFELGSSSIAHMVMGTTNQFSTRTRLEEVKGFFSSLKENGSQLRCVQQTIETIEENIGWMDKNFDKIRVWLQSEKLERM
testName: inhibition of ERAP1 peptide trimming enzyme – biochemical, single point, plate reader, primary screen (AID 652197);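 further: 0% = neutral control wells and 100% = L-leucinethiol positive control wells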
particulars: recombinant ERAP1, Leu-AMC fluorescence, 60 min; at 10.7 µM; stronger effect = higher value
About 500 (0.15%) of roughly 340,000 compounds were called active. The list comes from a sample in which actives are over-represented; it also holds close analogues and randomly drawn compounds.
quantityMeasured: inhibition (%)
Form entry: value (%) — number only.

Please review the entries below; each comes with its answer.
// inhibition lookup, compound = "C[C@@H]1CN([C@@H](C)CO)C(=O)c2cc(NC(=O)Nc3ccc(F)cc3)ccc2O[C@H]1CN(C)CC1CCCCC1" , result: -0.385

// inhibition lookup, compound = "CN1CCN(C(=O)C[C@H]2CC[C@@H]3[C@H](COC[C@@H](O)CN3CC3CCCC3)O2)CC1" , result: 4.35

// inhibition lookup, compound = "O=C(Nc1ccccc1F)N1CC(=O)N2[C@H](CO)[C@H](c3ccc(C#CC4CC4)cc3)[C@@H]2C1" , result: -1.09

Continuing:
// inhibition lookup, compound = "O=C(Nc1cccc(Cl)c1)N[C@@H]1CC[C@@H](CCNC(=O)C2CCOCC2)O[C@@H]1CO" , result: -1.57

// inhibition lookup, compound = "Cc1noc(C)c1S(=O)(=O)Nc1cccc2c1O[C@@H](CN(C)S(=O)(=O)c1cn(C)cn1)[C@@H](C)CN([C@H](C)CO)C2=O" , result: 1.15

// inhibition lookup, compound = "COC(=O)C[C@@H]1CC[C@H]2[C@H](COc3ccc(NC(=O)c4ccccc4F)cc3C(=O)N2C)O1" , result: 0.852

// inhibition lookup, compound = "COCCNC(=O)c1snc2ccc(Cl)cc12" , result: -4.43

// inhibition lookup, compound = "CNC(=O)C[C@@H]1CC[C@@H]2[C@H](COC[C@@H](O)CN2S(=O)(=O)c2ccccc2Cl)O1" , result: 0.052

// inhibition lookup, compound = "CN(C)C(=O)c1cccc(-c2ccc([C@H]3[C@H]4CN(C(=O)Cc5ccccc5)CC(=O)N4[C@H]3CO)cc2)c1" , result: 1.83

// inhibition lookup, compound = "C[C@@H]1CN([C@@H](C)CO)C(=O)c2c(c3ccccc3n2C)-c2ccccc2CO[C@@H]1CN(C)Cc1ccc2c(c1)OCCN2C" , result: 2.84
